Where a SMILES comes first, the peptide text is derived from it.
logP less than 2 is Condition met; logP greater than or equal to 2 is Condition not met.

Some entries whose results are on file:
Cc1ccc(OCC(O)C(C)NC(C)C)c2c1CCC2 (stereo not drawn) : Condition not met
CC1CC2C3CCC4=CC(=O)C=CC4(C)C3(F)C(O)CC2(C)C1(O)C(=O)COC(=O)C1CCCCC1 (stereo not drawn) : Condition not met

Now for another entry.
Query block: Does the reported logP of the following compound sit strictly below 2? NC(Cc1ccccc1)C(=O)NC(Cc1ccccc1)C(=O)NC(Cc1ccccc1)C(=O)NC(Cc1ccccc1)C(=O)O (stereo not drawn) (H-FFFF-OH; configuration not given here)
Result block: Condition met
